target: UniProt:P38605
pIC50: −log10 of the molar value.
ENDPOINT NAME: pIC50

Use these answered entries as a reference point.
# INPUT SMILES, SYSTEM UNDER TEST, pIC50
records = [
    ("C=CCN(C)CCCCCCOc1ccc(C(=O)c2ccc(Br)cc2)c(F)c1", "UniProt:P38605", 5.76),
    ("C=CCN(C)CCCCC[C@H]1CC[C@H](N(C)C(=O)Oc2ccc(C(F)(F)F)cc2)CC1", "UniProt:P38605", 6.00),
]

[P] C=CCN(C)CCCCCCOc1ccc2c(-c3ccc(Br)cc3)nn(C)c2c1
[Q] Brc1ccc(-c2nsc3cc(OCCCCN4CCOCC4)ccc23)cc1
[R] C=CCN(C)CCCCCCOc1ccc2c(-c3ccc(Br)cc3)nsc2c1
INPUT: With regard to pIC50, arrange the entries in ascending order, please. Output spec: a listing of the labels in the requested order.
OUTPUT: P, R, Q

* * *

Molecular target: UniProtKB P38604
Sequence (P38604 whole entry): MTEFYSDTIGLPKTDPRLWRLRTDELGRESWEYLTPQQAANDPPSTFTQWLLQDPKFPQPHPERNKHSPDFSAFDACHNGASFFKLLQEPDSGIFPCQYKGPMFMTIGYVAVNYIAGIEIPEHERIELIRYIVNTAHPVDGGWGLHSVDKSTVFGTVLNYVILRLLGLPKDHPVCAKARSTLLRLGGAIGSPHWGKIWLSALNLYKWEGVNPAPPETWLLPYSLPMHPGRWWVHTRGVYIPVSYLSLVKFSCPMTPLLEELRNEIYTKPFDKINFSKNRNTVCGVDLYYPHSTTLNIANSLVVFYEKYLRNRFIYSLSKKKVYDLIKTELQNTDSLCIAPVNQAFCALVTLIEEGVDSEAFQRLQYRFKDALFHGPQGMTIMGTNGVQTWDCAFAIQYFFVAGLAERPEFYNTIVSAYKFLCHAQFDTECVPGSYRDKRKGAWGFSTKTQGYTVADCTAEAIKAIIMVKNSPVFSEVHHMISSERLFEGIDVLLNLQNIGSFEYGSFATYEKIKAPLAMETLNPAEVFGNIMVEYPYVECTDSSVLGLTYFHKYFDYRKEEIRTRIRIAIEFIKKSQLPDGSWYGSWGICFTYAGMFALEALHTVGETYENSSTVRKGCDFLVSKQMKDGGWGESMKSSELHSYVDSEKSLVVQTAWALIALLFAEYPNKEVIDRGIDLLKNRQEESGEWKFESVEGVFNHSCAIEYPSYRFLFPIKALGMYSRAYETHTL
ENDPOINT NAME: IC50 (nM)

# INPUT SMILES, SYSTEM UNDER TEST, IC50 / nM
measured = [
    ("CC(=O)N(CCO)CCCCOc1ccc2c(-c3ccc(Br)cc3)nsc2c1", "UniProtKB P38604", 100000),
    ("C=CCN(C)CCCCC[C@H]1CC[C@H](N(C)C(=O)Oc2ccc(C(F)(F)F)cc2)CC1", "UniProtKB P38604", 50),
    ("C=CCN(C)CCCCCCOc1ccc2c(-c3ccc(Br)cc3)nn(C)c2c1", "UniProtKB P38604", 290),
    ("CCN(CCO)CCCC#Cc1ccc2c(-c3ccc(Br)cc3)nsc2c1", "UniProtKB P38604", 5000),
    ("CCN(CCO)CCCCC[C@H]1CC[C@H](N(C)C(=O)Oc2ccc(Cl)cc2)CC1", "UniProtKB P38604", 100),
    ("O=C(c1ccc(Cl)cc1)N1CCC(=Cc2ccc(C3=NCCO3)cc2)CC1", "UniProtKB P38604", 670),
    ("C=CCN(C)CCCCCCOc1ccc(C(=O)c2ccc(Br)cc2)c(F)c1", "UniProtKB P38604", 210),
    ("CCN(CC)C1(CCCC[C@H]2CC[C@H](N(C)S(=O)(=O)c3ccc(C(F)(F)F)cc3)CC2)CC1", "UniProtKB P38604", 500),
]

[a] CCN(CCO)C(C)(C)C#Cc1ccc2c(-c3ccc(Br)cc3)nsc2c1
[b] Brc1ccc(-c2nsc3cc(CCCCCN4CCOCC4)ccc23)cc1
INPUT: Hi there, can you help? I need to know whether a or b has lower measured IC50. When you have decided, please share the label of that item.
OUTPUT: b

* * *

Entries with reported IC50 on Lanosterol synthase (Homo sapiens, UniProt P48449)
ENDPOINT NAME: IC50 (nM)

[P] CCN(CCO)CCCCOc1ccc2c(-c3ccc(Br)cc3)nsc2c1
[Q] CN(C/C=C/COc1ccc(C(=O)c2ccc(Br)cc2)cc1)C1CC1
INPUT: Hi there, can you help? I need to know whether P or Q has lower measured IC50. When you have decided, please share the label of that item.
OUTPUT: Q
(Q: 270 nM, P: 520 nM)

[a] Brc1ccc(-c2nsc3cc(OCCCCN4CCOCC4)ccc23)cc1
[b] CCN(CC)C1(CCCC[C@H]2CC[C@H](N(C)S(=O)(=O)c3ccc(C(F)(F)F)cc3)CC2)CC1
INPUT: Hi there, can you help? I need to know whether a or b has lower measured IC50. When you have decided, please share the label of that item.
OUTPUT: a
(a: 120 nM, b: 440 nM)

[I] C=CCN(C)C/C=C/COc1ccc2c(-c3ccc(Br)cc3)coc2c1
[II] CCN(CC#Cc1ccc2c(-c3ccc(Br)cc3)nsc2c1)CCO
INPUT: Which record would sort first by descending IC50, I or II ? When you have decided, please share the label of that item.
OUTPUT: I

[1] C=CCN(C)CCCCCCOc1ccc2c(-c3ccc(Br)cc3)nsc2c1
[2] CCN(CCO)C(C)(C)C#Cc1ccc2c(-c3ccc(Br)cc3)nsc2c1
INPUT: Which record would sort first by descending IC50, 1 or 2 ? When you have decided, please share the label of that item.
OUTPUT: 2

* * *

Entries with reported pIC50 on Cycloartenol synthase (Arabidopsis thaliana)
Sequence (P38605 whole entry): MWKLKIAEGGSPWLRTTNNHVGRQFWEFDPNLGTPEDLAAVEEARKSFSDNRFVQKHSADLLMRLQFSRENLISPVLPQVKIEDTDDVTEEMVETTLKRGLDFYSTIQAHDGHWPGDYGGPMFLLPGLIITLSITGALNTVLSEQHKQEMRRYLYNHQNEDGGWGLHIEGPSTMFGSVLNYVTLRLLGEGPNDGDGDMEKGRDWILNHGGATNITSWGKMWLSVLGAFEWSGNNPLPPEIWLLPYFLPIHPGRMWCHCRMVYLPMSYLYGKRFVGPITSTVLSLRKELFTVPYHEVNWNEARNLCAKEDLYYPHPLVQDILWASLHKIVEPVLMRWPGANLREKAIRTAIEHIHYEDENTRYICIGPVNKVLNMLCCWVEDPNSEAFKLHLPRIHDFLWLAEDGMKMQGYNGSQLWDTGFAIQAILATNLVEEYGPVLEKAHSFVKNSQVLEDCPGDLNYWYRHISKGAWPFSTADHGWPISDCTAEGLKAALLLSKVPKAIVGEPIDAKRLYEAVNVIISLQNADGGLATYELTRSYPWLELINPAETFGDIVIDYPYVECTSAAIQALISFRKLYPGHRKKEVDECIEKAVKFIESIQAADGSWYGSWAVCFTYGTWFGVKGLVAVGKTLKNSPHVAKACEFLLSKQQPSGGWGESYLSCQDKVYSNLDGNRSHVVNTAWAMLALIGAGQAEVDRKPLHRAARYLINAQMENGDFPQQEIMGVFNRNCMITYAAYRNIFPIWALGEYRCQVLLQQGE
pIC50: −log10 of the molar value.
ENDPOINT NAME: pIC50

# INPUT SMILES, pIC50
measured = [
    ("C=CCN(C)C/C=C/COc1ccc2c(-c3ccc(Br)cc3)coc2c1", 5.52),
    ("CCN(CCO)C(C)(C)C#Cc1ccc2c(-c3ccc(Br)cc3)nsc2c1", 5.90),
    ("CCN(CCO)CCCCC[C@H]1CC[C@H](N(C)S(=O)(=O)c2ccc(C(F)(F)F)cc2)CC1", 5.52),
]

[a] CCN(CC)CCCCC[C@H]1CC[C@H](N(C)S(=O)(=O)c2ccc(C(F)(F)F)cc2)CC1
[b] C=CCN(C)CCCCCCOc1ccc(-c2nsc3cc(Br)ccc23)cc1
[c] CCN(CC)C(C)(C)CCCC[C@H]1CC[C@H](N(C)S(=O)(=O)c2ccc(C(F)(F)F)cc2)CC1
[d] O=C(c1ccc(Cl)cc1)N1CCC(=Cc2ccc(C3=NCCO3)cc2)CC1
[e] C=CCN(C)CCCCC[C@H]1CC[C@H](N(C)S(=O)(=O)c2ccc(C(F)(F)F)cc2)CC1
INPUT: With regard to pIC50, arrange the entries in ascending order, please. Output spec: a listing of the labels in the requested order.
OUTPUT: b, c, d, a, e

* * *

Target: Lanosterol synthase (Homo sapiens)
Sequence (P48449 whole entry): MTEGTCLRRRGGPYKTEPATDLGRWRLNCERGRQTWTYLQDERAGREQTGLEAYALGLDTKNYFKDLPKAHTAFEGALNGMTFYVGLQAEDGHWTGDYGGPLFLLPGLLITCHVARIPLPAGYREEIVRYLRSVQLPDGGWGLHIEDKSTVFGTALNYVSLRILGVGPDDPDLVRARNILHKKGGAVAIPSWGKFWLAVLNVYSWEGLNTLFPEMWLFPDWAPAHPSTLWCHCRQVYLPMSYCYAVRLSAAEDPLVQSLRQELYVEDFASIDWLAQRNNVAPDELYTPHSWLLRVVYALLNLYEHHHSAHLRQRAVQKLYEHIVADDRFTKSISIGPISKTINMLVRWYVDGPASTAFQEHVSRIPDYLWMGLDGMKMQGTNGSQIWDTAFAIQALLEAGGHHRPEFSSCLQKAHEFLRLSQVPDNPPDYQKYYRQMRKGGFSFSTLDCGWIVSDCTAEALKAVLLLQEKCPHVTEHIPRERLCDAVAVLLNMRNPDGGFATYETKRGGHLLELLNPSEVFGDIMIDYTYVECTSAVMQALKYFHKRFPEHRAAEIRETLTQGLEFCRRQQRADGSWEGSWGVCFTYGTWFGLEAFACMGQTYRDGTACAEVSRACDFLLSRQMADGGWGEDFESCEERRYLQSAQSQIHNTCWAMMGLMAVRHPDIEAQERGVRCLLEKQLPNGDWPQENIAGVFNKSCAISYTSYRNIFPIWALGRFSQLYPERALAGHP
In this section, each of the molecules is paired with its reported IC50.
// return numeric value only (unit: nM, not printed)

# INPUT SMILES, IC50, nM
rows = [
    ("Brc1ccc(-c2nsc3cc(CCCCCN4CCOCC4)ccc23)cc1", 100),
    ("C=CCN(C)CCCCC[C@H]1CC[C@H](N(C)C(=O)Oc2ccc(C(F)(F)F)cc2)CC1", 140),
]

Now look at this one.
INPUT: I'm curious: which IC50 was measured for CCN(CCO)CCCCC[C@H]1CC[C@H](N(C)C(=O)Oc2ccc(Cl)cc2)CC1 tested on Lanosterol synthase (Homo sapiens)?
OUTPUT: 4120
